# study_system: Human Factor D (Homo sapiens (Human), UniProt P00746)
# Sequence (P00746 26-253): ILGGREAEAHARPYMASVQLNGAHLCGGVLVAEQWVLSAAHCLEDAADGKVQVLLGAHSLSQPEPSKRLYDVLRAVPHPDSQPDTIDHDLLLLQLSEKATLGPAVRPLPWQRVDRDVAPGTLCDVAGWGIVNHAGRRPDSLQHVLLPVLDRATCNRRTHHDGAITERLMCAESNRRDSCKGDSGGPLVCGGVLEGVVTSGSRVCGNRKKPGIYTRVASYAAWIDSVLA
# test_method_notes: Human Factor D Assay
# Assay type: biochemical
# recorded_conditions: Human Factor D, Table 3; read-out: IC50
pIC50: −log10 of the molar value.
Task for the reader: assign each of the following compounds its reported pIC50.

Consider the following items and state reported pIC50 for each.
1. CC(=O)c1nn(CC(=O)N2C[C@H](F)C[C@H]2C(=O)Nc2cccc(OC(F)(F)F)n2)c2ccc(-c3cnc4cc(C5CC5)nn4c3)cc12
2. CC(=O)c1nn(CC(=O)N2C[C@H](F)C[C@H]2C(=O)NC[C@H]2CCN(C)C2)c2ccc(-c3cnc(C)nc3)cc12
3. CCc1cc2ncc(-c3ccc4c(c3)c(C(C)=O)nn4CC(=O)N3C[C@H](F)C[C@H]3C(=O)Nc3cccc(Br)n3)cn2n1

### Response
> 6.00
< 5.00
> 6.00

---

# study_system: Human Factor D (Homo sapiens (Human))
# test_method_notes: Human Factor D Assay
# Assay type: biochemical
# recorded_conditions: Table 3; Human Factor D 80 nM, substrate Z-L-Lys-SBzl; read-out: IC50 (Stars)
Task for the reader: assign each of the following compounds its reported IC50.

# annotated cases, reported IC50 shown
Cc1ncc(-c2ccc3c(c2)c([C@H](C)O)nn3CC(=O)N2[C@@H]3C[C@@H]3C[C@H]2C(=O)Nc2cccc(Br)n2)cn1 [Compound 409] ... < 1 µM
CC(=O)c1nn(CC(=O)N2C[C@H](F)C[C@H]2C(=O)Nc2cncc(Cl)n2)c2ccc(-c3cnc(C)nc3)cc12 [Compound 368] ... < 1 µM
CC(=O)c1nn(CC(=O)N2[C@@H]3C[C@@H]3C[C@H]2C(=O)Nc2cccc(Br)n2)c2ccc(-c3cnc(N)nc3)cc12 [Compound 364] ... < 1 µM
CC(=O)c1nn(CC(=O)N2C[C@H](F)C[C@H]2C(=O)Nc2ccn(CC(F)F)n2)c2ccc(-c3cnc(C)nc3)cc12 [Compound 401] ... < 1 µM
Cc1cccc(NC(=O)[C@@H]2[C@H]3CC[C@H](C3)N2C(=O)Cn2cc(C(N)=O)c3cc(-c4cccc(C#N)c4)ccc32)n1 [Compound 497] ... > 10 µM

Consider the following items and state reported IC50 for each.
1. COc1cc2c(cc1-c1cnc(C)nc1)c(C(C)=O)nn2CC(=O)N1C[C@H](F)C[C@H]1C(=O)Nc1cccc(Br)n1 [Compound 373]
2. CC(=O)c1nn(CC(=O)N2C[C@H](F)C[C@H]2C(=O)Nc2nc(Br)cs2)c2ccc(-c3cnc(C)nc3)cc12 [Compound 448]
3. CC(=O)c1nn(CC(=O)N2C[C@H](F)C[C@H]2C(=O)Nc2cccc(OC(F)(F)F)n2)c2ccc(-c3cnc(C)nc3)cc12 [Compound 344]
4. CC(=O)c1nn(CC(=O)N2C[C@H](F)C[C@H]2C(=O)Nc2cc(Br)n(C)n2)c2ccc(-c3cnc(C)nc3)cc12 [Compound 381]
5. CC(=O)N[C@H]1[C@@H](C(=O)Nc2cccc(Br)n2)N(C(=O)Cn2nc(C(C)=O)c3cc(-c4cnc(C)nc4)ccc32)C[C@@H]1F [Compound 512]
6. CC(=O)c1nn(CC(=O)N2[C@@H]3C[C@@H]3C[C@H]2C(=O)Nc2ccc(F)c(Br)n2)c2ccc(-c3cnc(N)nc3)cc12 [Compound 458]
7. COC[C@@]12C[C@@H]1N(C(=O)Cn1nc(C(C)=O)c3cc(-c4cnc(C)nc4)ccc31)[C@H](C(=O)Nc1cccc(Br)n1)C2 [Compound 417]
8. COc1ccc(NC(=O)[C@@H]2C[C@@H](F)CN2C(=O)Cn2nc(C(C)=O)c3cc(-c4cnc(C)nc4)ccc32)nc1Br [Compound 394]

### Response
1: < 1 µM; 2: < 1 µM; 3: < 1 µM; 4: < 1 µM; 5: < 1 µM; 6: < 1 µM; 7: < 1 µM; 8: < 1 µM

Consider the following items and state reported IC50 for each.
1. CC(=O)c1nn(CC(=O)N2C[C@@H](N)[C@H](F)[C@H]2C(=O)Nc2cccc(Br)n2)c2ccc(-c3cnc(C)nc3)cc12 [Compound 428]
2. Cc1cccc(NC(=O)[C@@H]2[C@H]3CC[C@H](C3)N2C(=O)Cn2cc(C(N)=O)c3cc(-c4ccc5c(c4)CCCC5)ccc32)n1 [Compound 515]
3. COc1cc(Br)nc(NC(=O)[C@@H]2C[C@@H](F)CN2C(=O)Cn2nc(C(C)=O)c3cc(-c4cnc(OC)nc4)ccc32)c1 [Compound 431]
4. CC(=O)c1nn(CC(=O)N2C[C@H](F)C[C@H]2C(=O)Nc2cccc(Br)n2)c2ccc(-c3cnc(NC4CC4)nc3)cc12 [Compound 367]

### Response
1. > 10 µM
2. > 10 µM
3. < 1 µM
4. < 1 µM

Consider the following items and state reported IC50 for each.
1. CC(=O)c1nn(CC(=O)N2C[C@H](F)C[C@H]2C(=O)Nc2cccc(-c3cc(S(=O)(=O)N(C)C)ccc3Cl)c2F)c2ccc(-c3cnc(C)nc3)cc12 [Compound 343]
2. CNC(=O)c1nn(CC(=O)N2C[C@H](F)C[C@H]2C(=O)Nc2cccc(Br)n2)c2ccc(-c3cnc(C)nc3)cc12 [Compound 424]
3. Cc1cccc(NC(=O)[C@@H]2[C@H]3CC[C@H](C3)N2C(=O)Cn2cc(C(N)=O)c3cc(-c4ccc5ccccc5c4)ccc32)n1 [Compound 489]
4. CC(=O)c1nn(CC(=O)N2C[C@H](F)C[C@H]2C(=O)Nc2cc(Cl)cc(Br)n2)c2ccc(-c3cnc(C)nc3)cc12 [Compound 359]
5. CC(=O)c1nn(CC(=O)N2C[C@H](F)C[C@H]2C(=O)Nc2nn(CC(F)(F)F)cc2Cl)c2ccc(-c3cnc(C)nc3)cc12 [Compound 430]
6. CC(=O)c1nn(CC(=O)N2C[C@H](F)C[C@H]2C(=O)Nc2cccc(Br)n2)c2ccc(-c3cnc(CC#N)nc3)cc12 [Compound 391]
7. CC(=O)c1nn(CC(=O)N2C[C@H](F)C[C@H]2C(=O)Nc2cccc(Br)n2)c2ccc(-c3cnc(S(C)(=O)=O)nc3)cc12 [Compound 521]

### Response
< 1 µM
< 1 µM
> 10 µM
< 1 µM
< 1 µM
< 1 µM
< 1 µM

// CC(=O)c1nn(CC(=O)N2[C@@H]3C[C@@H]3C[C@H]2C(=O)NC/C(F)=C(/C)c2cccc(Cl)c2)c2ccc(-c3cnc(C)nc3)cc12 [Compound 506] : IC50 value = < 1 µM
